molecular target: IS; assay: BIAcore
pKd: −log10 of the molar value.

Binder	pKd
Ly6G6D (other) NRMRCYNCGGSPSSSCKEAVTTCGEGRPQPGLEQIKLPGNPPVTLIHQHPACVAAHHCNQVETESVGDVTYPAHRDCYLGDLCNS	8.90
